# experimental target: Human recombinant AChE (Homo sapiens, UniProt P22303)
# Sequence (P22303 32-614): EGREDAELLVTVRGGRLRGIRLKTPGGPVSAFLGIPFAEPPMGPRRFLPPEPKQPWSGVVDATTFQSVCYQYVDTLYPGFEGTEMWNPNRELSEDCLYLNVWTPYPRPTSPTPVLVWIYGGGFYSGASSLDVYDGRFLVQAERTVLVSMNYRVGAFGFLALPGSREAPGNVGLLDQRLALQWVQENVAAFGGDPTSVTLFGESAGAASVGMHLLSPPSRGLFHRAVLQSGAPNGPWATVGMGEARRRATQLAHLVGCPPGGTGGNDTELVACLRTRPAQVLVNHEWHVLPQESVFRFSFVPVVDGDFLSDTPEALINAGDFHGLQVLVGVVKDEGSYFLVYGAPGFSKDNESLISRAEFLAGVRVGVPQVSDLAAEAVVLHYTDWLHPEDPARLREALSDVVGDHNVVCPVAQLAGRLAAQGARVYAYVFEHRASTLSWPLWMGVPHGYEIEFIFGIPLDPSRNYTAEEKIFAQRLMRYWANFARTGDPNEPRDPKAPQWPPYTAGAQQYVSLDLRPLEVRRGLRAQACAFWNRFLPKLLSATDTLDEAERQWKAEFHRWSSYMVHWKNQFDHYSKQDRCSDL
# test details: AChE inhibition, Ellman assay
property label: IC50

- O=C1C=C(OCCCCCCn2cc(CNc3ccc4ncc(-c5ccccc5)nc4c3)nn2)C(=O)c2ccccc21: > 100 µM

Query molecule follows.
IC50 recorded for this molecule, O=C1C=C(OCCCCCCCCn2cc(CNc3ccc4ncc(-c5ccccc5)nc4c3)nn2)C(=O)c2ccccc21 , is > 100 µM

Reference for the values: paper PMC10500570
